- Tested on: MAb4155 (anti-estrone-3-glucuronide monoclonal antibody)
- experimental details: ELISA testing of peptides on pins: binding of MAb4155 to peptides
- Set-up: species or system mouse
- assay conditions: Table 2; replacement analogues of SEQ ID NO:8, setting SEQ ID NO:8 to a Relative Binding of 100
Measured Relative Binding of MAb4155 to peptides as measured by ELISA, listed per entry.
metric: Relative Binding of MAb4155 to peptides as measured by ELISA

{"substance": "Gly-Tyr-Phe-Glu-Asp (GYFED) [SEQ ID NO:20]", "experimental system": "MAb4155 (anti-estrone-3-glucuronide monoclonal antibody)", "value": 220}
{"substance": "Gly-Leu-Trp-Glu-Asp (GLWED) [SEQ ID NO:21]", "experimental system": "MAb4155 (anti-estrone-3-glucuronide monoclonal antibody)", "value": 207}
{"substance": "Gly-Leu-Phe-Glu-Asp (GLFED) [SEQ ID NO:8]", "experimental system": "MAb4155 (anti-estrone-3-glucuronide monoclonal antibody)", "value": 100}
{"substance": "Gly-Leu-Phe-Glu-Phe (GLFEF) [SEQ ID NO:30]", "experimental system": "MAb4155 (anti-estrone-3-glucuronide monoclonal antibody)", "value": 204}
{"substance": "Gly-Leu-Phe-Glu-Leu (GLFEL) [SEQ ID NO:32]", "experimental system": "MAb4155 (anti-estrone-3-glucuronide monoclonal antibody)", "value": 168}
{"substance": "Gly-Leu-Phe-Cys-Asp (GLFCD) [SEQ ID NO:22]", "experimental system": "MAb4155 (anti-estrone-3-glucuronide monoclonal antibody)", "value": 335}
{"substance": "Gly-Leu-Phe-Glu-Trp (GLFEW) [SEQ ID NO:34]", "experimental system": "MAb4155 (anti-estrone-3-glucuronide monoclonal antibody)", "value": 594}
{"substance": "Gly-Trp-Phe-Glu-Asp (GWFED) [SEQ ID NO:19]", "experimental system": "MAb4155 (anti-estrone-3-glucuronide monoclonal antibody)", "value": 343}
{"substance": "Gly-Leu-Phe-Tyr-Asp (GLFYD) [SEQ ID NO:28]", "experimental system": "MAb4155 (anti-estrone-3-glucuronide monoclonal antibody)", "value": 252}
{"substance": "Gly-Phe-Phe-Glu-Asp (GFFED) [SEQ ID NO:18]", "experimental system": "MAb4155 (anti-estrone-3-glucuronide monoclonal antibody)", "value": 200}
{"substance": "Gly-Leu-Phe-Phe-Asp (GLFFD) [SEQ ID NO:24]", "experimental system": "MAb4155 (anti-estrone-3-glucuronide monoclonal antibody)", "value": 184}
{"substance": "Gly-Leu-Phe-Glu-Cys (GLFEC) [SEQ ID NO:29]", "experimental system": "MAb4155 (anti-estrone-3-glucuronide monoclonal antibody)", "value": 296}
{"substance": "Gly-Leu-Phe-Glu-Tyr (GLFEY) [SEQ ID NO:35]", "experimental system": "MAb4155 (anti-estrone-3-glucuronide monoclonal antibody)", "value": 386}

* * *

- Test system: MAb4155 (anti-estrone-3-glucuronide monoclonal antibody)
- experimental details: ELISA testing of peptides on pins: binding of MAb4155 to peptides
- Set-up: species or system mouse
- assay conditions: Table 2; replacement analogues of SEQ ID NO:8, setting SEQ ID NO:8 to a Relative Binding of 100
Labelling: Relative Binding of MAb4155 to peptides as measured by ELISA reported below 200 becomes Fulfilled; at or above becomes Not fulfilled.

{"substance": "Gly-Leu-Phe-Leu-Asp (GLFLD) [SEQ ID NO:26]", "label value": "Fulfilled"}
{"substance": "Gly-Leu-Phe-Trp-Asp (GLFWD) [SEQ ID NO:27]", "label value": "Not fulfilled"}
{"substance": "Gly-Leu-Phe-Glu-Ile (GLFEI) [SEQ ID NO:31]", "label value": "Fulfilled"}
{"substance": "Gly-Leu-Phe-Asp-Asp (GLFDD) [SEQ ID NO:23]", "label value": "Fulfilled"}
{"substance": "Gly-Leu-Phe-Glu-Val (GLFEV) [SEQ ID NO:33]", "label value": "Fulfilled"}
{"substance": "Gly-Leu-Phe-Ile-Asp (GLFID) [SEQ ID NO:25]", "label value": "Fulfilled"}

* * *

- System: MAb4155 (anti-estrone-3-glucuronide monoclonal antibody)
- experimental details: ELISA testing of peptides on pins: binding of MAb4155 to peptides
- Design: species or system mouse
- assay conditions: Table 1; peptides on pins based on SEQ ID NO:2 (truncations, Ala/Gly replacement)
Ends that are not written are not given here.
metric: Relative Binding of MAb4155 to peptides as measured by ELISA

{"substance": "AAERGLFAD [SEQ ID NO:79]", "value": 1.8}
{"substance": "AAERGLAED [SEQ ID NO:78]", "value": 0.8}
{"substance": "GAERGLFED [SEQ ID NO:12]", "value": 1.9}
{"substance": "AAEAGLFED [SEQ ID NO:15]", "value": 2.0}
{"substance": "AAERGLFE [SEQ ID NO:71]", "value": 1.0}
{"substance": "AERGLFED [SEQ ID NO:11]", "value": 1.5}
{"substance": "AAERGLFEA [SEQ ID NO:80]", "value": 1.1}
{"substance": "AAERGL [SEQ ID NO:73]", "value": 1.0}
{"substance": "Leu-Phe-Glu-Asp (LFED) [SEQ ID NO:7]", "value": 1.9}
{"substance": "AAERGLF [SEQ ID NO:72]", "value": 1.0}
{"substance": "Ala-Ala-Glu-Arg-Gly (AAERG) [SEQ ID NO:74]", "value": 1.0}
{"substance": "AAERGAFED [SEQ ID NO:17]", "value": 1.6}
{"substance": "AGERGLFED [SEQ ID NO:13]", "value": 2.0}
{"substance": "Gly-Leu-Phe-Glu-Asp (GLFED) [SEQ ID NO:8]", "value": 2.2}
{"substance": "AAERALFED [SEQ ID NO:16]", "value": 1.5}
{"substance": "RGLFED [SEQ ID NO:9]", "value": 1.6}
{"substance": "AAERGLFED [SEQ ID NO:2]", "value": 2.0}
{"substance": "ERGLFED [SEQ ID NO:10]", "value": 1.8}
{"substance": "AAARGLFED [SEQ ID NO:14]", "value": 1.5}
{"substance": "Ala-Ala-Glu-Arg (AAER) [SEQ ID NO:75]", "value": 0.8}

Origin of values: patent US20040029808A1
